These measurements were taken from patent US20240279318A1.

- targetDesc: T1, AFP158/HLA-A*02:01 complex (human)
- T1 construct: biotinylated on the BSP by BirA for ELISA and panning; also called biotinylated AFP158/HLA-A*02:01 complex; Bio-AFP158
- methodNotes: SPR, scFv-mIgG2aFc from supernatant captured, complex as analyte
parameterMeasured: log10 Kd (log10 of the value in nM)
Recorded Kd (log10, nM)

Supply recorded log10 Kd for AS179732 VL1VH1g1 scFv-mIgG2aFc (Fc fusion, not shown: a dimerising Fc or GST; small tags and cut ends) scFv: QSVLTQPPSASGTPGQRVTISCTGSSSNIGGNYVNWYQQLPGTAPKLLIYDNSNRASGVPDRFSGSKSGTSASLAISGLQSEDEADYYCASWDDSLSGAVFGGGTKLTVLGGGGSGGGGSGGGGSEVQLVESGGGLVQPGGSLRLSCAASGFTFLNYAMSWVRQAPGKGLEWVSSNSGAGSTYYADSVKGRFTISRDNSKNTLYLQMNSLRAEDTAVYYCAKGTNVGSWSSLHYWGQGTLVTVSS here.
2.72

Supply recorded log10 Kd for AS179732 VL1g1VH1 scFv-mIgG2aFc (Fc fusion, not shown: a dimerising Fc or GST; small tags and cut ends) scFv: QSVLTQPPSASGTPGQRVTISCSGSSSNIGGNYVNWYQQLPGTAPKLLIYDNSNRASGVPDRFSGSKSGTSASLAISGLQSEDEADYYCASWDDSLSGAVFGGGTKLTVLGGGGSGGGGSGGGGSEVQLVESGGGLVQPGGSLRLSCAASGFTFLNYAMSWVRQAPGKGLEWVSSNSGAGSTYYSDSVKGRFTISRDNSKNTLYLQMNSLRAEDTAVYYCAKGTNVGSWSSLHYWGQGTLVTVSS here.
2.65

Supply recorded log10 Kd for AS179732 VL1g1VH1g1 scFv-mIgG2aFc (Fc fusion, not shown: a dimerising Fc or GST; small tags and cut ends) scFv: QSVLTQPPSASGTPGQRVTISCSGSSSNIGGNYVNWYQQLPGTAPKLLIYDNSNRASGVPDRFSGSKSGTSASLAISGLQSEDEADYYCASWDDSLSGAVFGGGTKLTVLGGGGSGGGGSGGGGSEVQLVESGGGLVQPGGSLRLSCAASGFTFLNYAMSWVRQAPGKGLEWVSSNSGAGSTYYADSVKGRFTISRDNSKNTLYLQMNSLRAEDTAVYYCAKGTNVGSWSSLHYWGQGTLVTVSS here.
2.65

Supply recorded log10 Kd for AS179732 VL1VH1 scFv-mIgG2aFc (Fc fusion, not shown: a dimerising Fc or GST) scFv: QSVLTQPPSASGTPGQRVTISCTGSSSNIGGNYVNWYQQLPGTAPKLLIYDNSNRASGVPDRFSGSKSGTSASLAISGLQSEDEADYYCASWDDSLSGAVFGGGTKLTVLGGGGSGGGGSGGGGSEVQLVESGGGLVQPGGSLRLSCAASGFTFLNYAMSWVRQAPGKGLEWVSSNSGAGSTYYSDSVKGRFTISRDNSKNTLYLQMNSLRAEDTAVYYCAKGTNVGSWSSLHYWGQGTLVTVSS here.
2.64

Supply recorded log10 Kd for AS179732 VL1g1VH1g1-N73Y scFv-mIgG2aFc (Fc fusion, not shown: a dimerising Fc or GST, Humanized) QSVLTQPPSASGTPGQRVTISCSGSSSNIGGNYVNWYQQLPGTAPKLLIYDNSNRASGVPDRFSGSKSGTSASLAISGLQSEDEADYYCASWDDSLSGAVFGGGTKLTVLGGGGSGGGGSGGGGSEVQLVESGGGLVQPGGSLRLSCAASGFTFLNYAMSWVRQAPGKGLEWVSSNSGAGSTYYADSVKGRFTISRDYSKNTLYLQMNSLRAEDTAVYYCAKGTNVGSWSSLHYWGQGTLVTVSS here.
1.73

Continuing:
Supply recorded log10 Kd for AS179732 scFv-mIgG2aFc (Fc fusion, not shown: a dimerising Fc or GST, Camel scFv; i647-labelled for flow cytometry) NFMLTQPPSMSGSPRQSVTISCTGSSSNIGGNYVNWYQHLPGTAPKLLIYDNSNRASGVPERFSGSKSGSSASLTITGLQAEDEGDYYCASWDDSLSGAVFGGGTHLTVLGGGGSGGGGSGGGGSEVQLVESGGGLVQPGGSLRLSCAASGFTFLNYAMSWVRQAPGKGLEWVSSNSGAGSTYYSDSVKGRFTISRDYAKNVVYLQLNSLKTEDTGMYYCAKGTNVGSWSSLHYWGQGTQVTVSS here.
1.67
